Values of log10(Ki) reported for UniProt:Q72874 appear below.
Scale: decimal log of Ki, Ki in nM.

compound COc1ccc(CN[C@@H](C(=O)N[C@H](C(=O)NCc2nc3ccccc3[nH]2)C(C)C)[C@H](O)[C@H](Cc2ccccc2)NC(=O)[C@@H](NC(=O)CCc2ccc(C(P(=O)(O)OCc3ccccc3)P(=O)(O)OCc3ccccc3)cc2)C(C)(C)C)cc1 (stereo not given in full) , log10(Ki) observed: 0.72

====

system tested: Human immunodeficiency virus type 1 protease (Human immunodeficiency virus 1, UniProt Q72874)
experiment description: Inhibitory activity was determined against HIV type 1 protease
recorded metric: pKi
pKi is defined as minus the log10 of a concentration measured in mol/L.

{"columns": ["compound", "pKi"],
 "data": [
  ["COc1ccc(CN[C@@H](C(=O)NCCC(=O)NCc2nc3ccccc3[nH]2)[C@H](O)[C@H](Cc2ccccc2)NC(=O)[C@@H](NC(=O)OCc2ccccc2)C(C)C)cc1", 7.33],
  ["CC(C)[C@H](NC(=O)OCc1ccccc1)C(=O)N[C@@H](Cc1ccccc1)[C@@H](O)[C@@H](NCc1ccccc1)C(=O)N[C@H](C(=O)NCc1ccccc1)C(C)(C)C", 7.70]
]}

Now consider a different compound.
compound CC(C)[C@H](NC(=O)OCc1ccccc1)C(=O)N[C@@H](Cc1ccccc1)[C@@H](O)[C@@H](NC1CCC(O)CC1)C(=O)N[C@H](C(=O)NCc1ccccc1)C(C)C (stereo in doubt; 282808) , pKi observed: 5.77

====

system tested: Human immunodeficiency virus type 1 protease (Human immunodeficiency virus 1)
experiment description: Inhibitory activity was determined against HIV type 1 protease
recorded metric: pKi
pKi is defined as minus the log10 of a concentration measured in mol/L.

Field: example entries. Status: answers known.
{"columns": ["compound", "pKi"],
 "data": [
  ["CC(C)[C@H](NC(=O)OCc1ccccc1)C(=O)N[C@@H](Cc1ccccc1)[C@@H](O)[C@@H](NC[C@H](O)c1ccccc1)C(=O)N[C@H](C(=O)NCc1nc2ccccc2[nH]1)C(C)C", 7.55],
  ["COc1ccc(CN[C@@H](C(=O)N[C@H](C(=O)NCc2nc3ccccc3[nH]2)C(C)C)[C@H](O)[C@H](Cc2ccccc2)NC(=O)[C@@H](NC(=O)CCc2ccc(P(=O)(O)O)cc2)C(C)(C)C)cc1", 8.11],
  ["CC(C)[C@H](NC(=O)OCc1ccccn1)C(=O)N[C@@H](Cc1ccccc1)[C@@H](O)[C@@H](NCc1ccccc1)C(=O)N[C@H](C(=O)NCc1ccccn1)C(C)C", 7.57],
  ["CC(C)(C)OC(=O)N[C@@H](Cc1ccccc1)[C@@H](O)[C@@H](NCc1ccc(OCCO)cc1)C(=O)NCc1ccccc1", 5.92],
  ["COC(=O)CC[C@H](NC(=O)[C@H](NCc1ccc(OC)cc1)[C@H](O)[C@H](Cc1ccccc1)NC(=O)[C@@H](NC(=O)OCc1ccccc1)C(C)C)C(=O)NCc1nc2ccccc2[nH]1", 7.96]
]}

compound COc1ccc(CN[C@@H](C(=O)NCc2nc3ccccc3[nH]2)[C@H](O)[C@H](Cc2ccccc2)NC(=O)OC(C)(C)C)cc1 , pKi observed: 5.64

compound CC(C)[C@H](N)C(=O)C[C@@H](Cc1ccccc1)[C@@H](O)[C@H]1CCc2ccc(cc2)OCCOCCCOCCNC(=O)[C@H](C(C)C)CC1=O , pKi observed: 8.16

compound CCCCCCCCOC(=O)N[C@H](C(=O)N[C@@H](Cc1ccccc1)[C@@H](O)[C@@H](NCc1ccccc1)C(=O)N[C@H](C(=O)NCc1ccccc1)C(C)C)C(C)(C)C , pKi observed: 7.85

compound COc1ccc(CN[C@@H](C(=O)N[C@H](C(=O)NCCN(C)C)C(C)C)[C@H](O)[C@H](Cc2ccccc2)NC(=O)[C@@H](NC(=O)OCc2ccccc2)C(C)C)cc1 , pKi observed: 7.59

compound COc1ccc(CN[C@@H](C(=O)N[C@H](C(=O)N(C)Cc2nc3ccccc3[nH]2)C(C)C)[C@H](O)[C@H](Cc2ccccc2)NC(=O)OC(C)(C)C)cc1 , pKi observed: 7.92

====

pKi listing for selected compounds.
system tested: Human immunodeficiency virus type 1 protease (Human immunodeficiency virus 1)
pKi is defined as minus the log10 of a concentration measured in mol/L.

{"columns": ["compound", "pKi"],
 "data": [
  ["CC(=O)NCc1ccc(CN[C@@H](C(=O)N[C@H]2c3ccccc3CC2O)[C@H](O)[C@H](Cc2ccccc2)NC(=O)[C@@H](NC(=O)OCc2ccccc2)C(C)(C)C)cc1 (some centres undefined)", 8.24],
  ["CC(C)(C)[C@H](NC(=O)OCc1ccccc1)C(=O)N[C@@H](Cc1ccccc1)[C@@H](O)[C@@H](NCc1ccc(OCCN2CCOCC2)cc1)C(=O)N[C@H]1c2ccccc2CC1O (some centres undefined)", 8.02],
  ["CC(C)(C)OC(=O)N[C@@H](Cc1ccccc1)[C@@H](O)[C@@H](NCc1ccc(CNC(=O)CCc2nc3ccccc3[nH]2)cc1)C(=O)N[C@H]1c2ccccc2CC1O (some centres undefined)", 7.39]
]}

Now consider a different compound.
compound CC(C)(C)[C@H](NC(=O)OCc1ccccc1)C(=O)N[C@@H](Cc1ccccc1)[C@@H](O)[C@@H](NCc1ccc(CNC(=O)Nc2ccccc2)cc1)C(=O)N[C@H]1c2ccccc2CC1O (some centres undefined) , pKi observed: 8.48

====

system tested: Human immunodeficiency virus type 1 protease (Human immunodeficiency virus 1)
recorded metric: pKi
pKi is defined as minus the log10 of a concentration measured in mol/L.

Field: example entries. Status: answers known.
{"columns": ["molecule", "system tested", "pKi"],
 "data": [
  ["COc1ccc(CN[C@@H](C(=O)N[C@H](C(=O)NCCc2ccc(S(N)(=O)=O)cc2)C(C)C)[C@H](O)[C@H](Cc2ccccc2)NC(=O)[C@@H](NC(=O)OCc2ccccc2)C(C)C)cc1", "Human immunodeficiency virus type 1 protease (Human immunodeficiency virus 1)", 7.85],
  ["CCOc1ccc(CN[C@@H](C(=O)N[C@H](C(=O)NCc2nc3ccccc3[nH]2)C(C)C)[C@H](O)[C@H](Cc2ccccc2)NC(=O)[C@@H](NC(=O)OCc2ccccc2)C(C)C)cc1", "Human immunodeficiency virus type 1 protease (Human immunodeficiency virus 1)", 7.62],
  ["CC(C)(C)OC(=O)N[C@@H](Cc1ccccc1)[C@@H](O)[C@@H](NCc1ccc(CNC(=O)CCc2nc3ccccc3[nH]2)cc1)C(=O)NC(CO)c1ccccc1 (some centres undefined)", "Human immunodeficiency virus type 1 protease (Human immunodeficiency virus 1)", 5.60]
]}

Now consider a different molecule.
molecule COc1ccc(CN[C@@H](C(=O)NCCNCc2nc3ccccc3[nH]2)[C@H](O)[C@H](Cc2ccccc2)NC(=O)[C@@H](NC(=O)OCc2ccccc2)C(C)C)cc1 , pKi observed: 5.89

====

system tested: Human immunodeficiency virus type 1 protease (Human immunodeficiency virus 1, UniProt Q72874)
experiment description: Inhibitory activity was determined against HIV type 1 protease
pKi listing for selected molecules.
pKi is defined as minus the log10 of a concentration measured in mol/L.

{"columns": ["molecule", "pKi"],
 "data": [
  ["CC(C)(C)[C@H](NC(=O)OCc1ccccc1)C(=O)N[C@@H](Cc1ccccc1)[C@@H](O)[C@@H](NCc1ccccc1)C(=O)N[C@H]1c2ccccc2CC1O (some centres not stated)", 7.84],
  ["COc1ccc(CN[C@@H](C(=O)N[C@H](C(=O)Nc2ccc3ncsc3c2)C(C)C)[C@H](O)[C@H](Cc2ccccc2)NC(=O)[C@@H](NC(=O)OCc2ccccc2)C(C)C)cc1", 7.80],
  ["CC(C)[C@H](NC(=O)OCc1ccccc1)C(=O)N[C@@H](Cc1ccccc1)[C@@H](O)[C@@H](NCc1ccccc1)C(=O)N[C@H](C(=O)OCc1nc2cc(Cl)c(Cl)cc2[nH]1)C(C)C", 7.64],
  ["CC(C)(C)[C@H](NC(=O)OCc1ccccc1)C(=O)N[C@@H](Cc1ccccc1)[C@@H](O)[C@@H](NCc1ccccc1)C(=O)N[C@@H](CO)c1ccccc1", 7.44],
  ["COc1ccc(CN[C@@H](C(=O)N[C@H](C(=O)Nc2nc3ccccc3[nH]2)C(C)C)[C@H](O)[C@H](Cc2ccccc2)NC(=O)[C@@H](NC(=O)OCc2ccccc2)C(C)C)cc1", 8.00]
]}

molecule CC(C)[C@H](NC(=O)[C@H](NCc1ccccc1)[C@H](O)[C@H](Cc1ccccc1)NC(=O)[C@@H](NC(=O)COc1ccccc1)C(C)(C)C)C(=O)NCc1ccccc1 , pKi observed: 7.80

molecule COc1ccc(CN[C@@H](C(=O)N[C@H](C(=O)NCc2nc3ccccc3[nH]2)C(C)C)[C@H](O)[C@H](Cc2ccccc2)NC(=O)[C@@H](NC(=O)[C@@H](O)Cc2ccccc2)C(C)(C)C)cc1 , pKi observed: 8.22

The measurements presented in this section are drawn from ChEMBL document CHEMBL1128211.
